Entries and their pKi
tgt: GABA A receptor a2b3g2 (hα2) (Homo sapiens, UniProt P18507+P47869)
Construct: expressed in transfected cells; host or cells: HEK293 (transient transfection), membranes
test.details: [3H]flumazenil competition binding, GABA A a2b3g2 receptors in HEK293 cells
pKi: −log10 of the molar value.

compound	pKi
CCc1ncn2c1Cn1ncnc1-c1cc(Cl)ccc1-2 [Example 10]	8.02
Cc1ncn2c1Cn1ncnc1-c1ccccc1-2 [Example 1]	7.81
Clc1ccc2c(c1)-c1ncnn1Cc1c(/C=C/C3CC3)ncn1-2 [Example 23]	7.39
C=Cc1ncn2c1Cn1ncnc1-c1ccccc1-2 [Example 18]	8.24
CCc1ncn2c1Cn1ncnc1-c1cc(F)ccc1-2 [Example 9]	8.72
Fc1cccc(C#Cc2ncn3c2Cn2ncnc2-c2cc(F)ccc2-3)c1 [Example 31]	8.35
CCCc1ncn2c1Cn1ncnc1-c1cc(Cl)ccc1-2 [Example 12]	8.10
FC(F)Cc1ncn2c1Cn1ncnc1-c1ccccc1-2 [Example 41]	7.84
C=Cc1ncn2c1Cn1ncnc1-c1cc(Cl)ccc1-2 [Example 20]	7.47
Clc1ccc2c(c1)-c1ncnn1Cc1c(CC3CC3)ncn1-2 [Example 14]	7.99

* * *

tgt: GABA A receptor a5b3g2 (hα5) (Homo sapiens, UniProt P18507+P31644)
Construct: expressed in transfected cells; host or cells: HEK293 (transient transfection), membranes
test.details: [3H]flumazenil competition binding, GABA A a5b3g2 receptors in HEK293 cells

molecule	unit.annotation	Ki
Cc1ncn2c1Cn1ncnc1-c1cc(Cl)ccc1-2 [Example 3]	nM	3
Cc1ncn2c1Cn1ncnc1-c1cc(I)ccc1-2 [Example 53]	nM	4.3

* * *

tgt: GABA A receptor a1b3g2 (hα1) (Homo sapiens, UniProt P14867+P18507)
Construct: expressed in transfected cells; host or cells: HEK293 (transient transfection), membranes
test.details: [3H]flumazenil competition binding, GABA A a1b3g2 receptors in HEK293 cells
Ki overview
quantity: Ki (nM)

CCCc1ncn2c1Cn1ncnc1-c1cc(Cl)ccc1-2 4.2
CC(C)c1cccc(C#Cc2ncn3c2Cn2ncnc2-c2cc(F)ccc2-3)c1 4
Cc1ncn2c1Cn1ncnc1-c1ccccc1-2 41.6
FC(F)=Cc1ncn2c1Cn1ncnc1-c1ccccc1-2 8.5
Fc1cccc(C#Cc2ncn3c2Cn2ncnc2-c2cc(F)ccc2-3)c1 5.5
CCc1ncn2c1Cn1ncnc1-c1cc(F)ccc1-2 7.9
FC(F)Cc1ncn2c1Cn1ncnc1-c1ccccc1-2 13.5
CCc1ncn2c1Cn1ncnc1-c1cc(OC)ccc1-2 26.7
Cc1ncn2c1Cn1ncnc1-c1cc(Cl)ccc1-2 18.5
Clc1ccc2c(c1)-c1ncnn1Cc1c(CC3CC3)ncn1-2 4.9

* * *

tgt: GABA A receptor a3b3g2 (hα3) (Homo sapiens, UniProt P18507+P34903)
Construct: expressed in transfected cells; host or cells: HEK293 (transient transfection), membranes
test.details: [3H]flumazenil competition binding, GABA A a3b3g2 receptors in HEK293 cells
pKi: −log10 of the molar value.
# label = 1 (yes) if pKi >= 8 else 0 (no)

FC(F)=Cc1ncn2c1Cn1ncnc1-c1ccccc1-2 1 (yes)
C=Cc1ncn2c1Cn1ncnc1-c1ccccc1-2 1 (yes)
C=Cc1ncn2c1Cn1ncnc1-c1cc(Cl)ccc1-2 0 (no)
C#Cc1ncn2c1Cn1ncnc1-c1cc(Cl)ccc1-2 1 (yes)
Fc1cccc(C#Cc2ncn3c2Cn2ncnc2-c2cc(F)ccc2-3)c1 1 (yes)
